pIC50, Cytosolic phospholipase A2 (Homo sapiens, UniProt P47712): measured values
The meaning of pIC50 here: minus log10 of the concentration in molar units.

Check out these entries, answers already filled in.
>>> assay_result("COC[C@@H]1CCCN1CCS(=O)(=O)NCCc1c(CCOc2ccc(C(=O)O)cc2)c2cc(Cl)ccc2n1C(c1ccccc1)c1ccccc1")
6.60
>>> assay_result("O=C(O)c1ccc(OCCc2c(CCNS(=O)(=O)CCN3CCN(c4ccccn4)CC3)n(C(c3ccccc3)c3ccccc3)c3ccc(Cl)cc23)cc1")
6.54

// returns reported pIC50 for input CC1CCCN1CCS(=O)(=O)NCCc1c(CCOc2ccc(C(=O)O)cc2)c2cc(Cl)ccc2n1C(c1ccccc1)c1ccccc1 (stereo not drawn)
6.66

Similarly, O=C(O)c1ccc(OCCc2c(CCNS(=O)(=O)CSc3ccc(F)c(Cl)c3)n(C(c3ccccc3)c3ccccc3)c3ccc(Cl)cc23)cc1 ?
6.77

Also CS(=O)(=O)CS(=O)(=O)NCCc1c(CCOc2ccc(C(=O)O)cc2)c2cc(Cl)ccc2n1C(c1ccccc1)c1ccccc1 ?
6.82

Moving on to the next compound: O=C(O)c1ccc(OCCc2c(CCNS(=O)(=O)CSc3ccccc3Cl)n(C(c3ccccc3)c3ccccc3)c3ccc(Cl)cc23)cc1
6.82

And then O=C(O)c1ccc(OCCc2c(CCNS(=O)(=O)CCN3CC4CC3CO4)n(C(c3ccccc3)c3ccccc3)c3ccc(Cl)cc23)cc1 (stereo not drawn) , what is it?
6.60

Now the same for O=C(O)c1ccc(OCCc2c(CCNS(=O)(=O)CCn3ncnn3)n(C(c3ccccc3)c3ccccc3)c3ccc(Cl)cc23)cc1
6.42
